Hi there, I'd appreciate the recorded Papp A→B for every entry that follows.
Assay: Membrane permeability test using Caco-2 cells with preincubation
Format: in vitro ADME
Settings: Caco-2; preincubation 20 to 24 hours; Apical FaSSIF/HBSS pH 6.0, Basal HBSS 4% BSA pH 7.4; 180 minutes; read-out: Caco2 Papp
Procedure: The permeability coefficient (Caco-2 Papp (cm/sec)) is calculated using a numerical expression 1. [Expression 1] Papp = (1)/(C1 (0) × S) × (dQ)/(dt) [formula] dQ/dt represents the permeation rate of drug (the amount of drug appearing on the Basal side per unit time), S represents the total surface area of cells, and C1(0) represents the concentration of drug added on the Apical side. […]
Starred links: 1 amine or outer side, 2 acyl side, 3 side chain; linkers in the order of their positions; H or OH if unused. Positions of bridges follow the written chain, without caps; N, C: chain ends. Non-standard residues stand in square brackets, D forms with d. Residues, ends and D or L forms follow the SMILES beside them. *: point of attachment. NMedβ3hAla = C[C@H](CC(=O)[*:2])N(C)[*:1]; NMeF = CN[C@@H](Cc1ccccc1)C(=O)O; NMeI = CC[C@H](C)[C@H](NC)C(=O)O; NMeL = CN[C@@H](CC(C)C)C(=O)O; NMeV = CN[C@H](C(=O)O)C(C)C; NMeA = CN[C@@H](C)C(=O)O; Piperidide = C1CCN(*)CC1; Abu = CC[C@H](N)C(=O)O; Sar = CNCC(=O)O; tBu = CC(C)(C)*
Please respond with the number in ×10⁻⁶ cm/s and leave the unit unwritten.

Query (molecule): CC[C@H](C)[C@H]1C(=O)N[C@@H](CC(C)C)C(=O)N(C)[C@@H](CC(C)C)C(=O)N2CCC[C@H]2C(=O)N(C)[C@@H](C(C)C)C(=O)N[C@H](C(=O)N2CCCCC2)CC(=O)N[C@@H](C)C(=O)N(C)[C@@H](CC(C)C)C(=O)N[C@@H](C(C)C)C(=O)N(C)[C@@H](Cc2ccccc2)C(=O)N(C)[C@@H](CC(C)C)C(=O)N[C@@H](C)C(=O)N(C)[C@@H](Cc2ccccc2)C(=O)N[C@@H]([C@@H](C)O)C(=O)N1C [pd036] (A[NMeL]V[NMeF][NMeL]A[NMeF]T[NMeI]L[NMeL]P[NMeV]D-Piperidide; lactam N-14) ; field requested: Papp A→B
0.28

Query (molecule): CC[C@@H]1NC(=O)[C@H](Cc2ccccc2)N(C)C(=O)[C@@H]2CCCN2C(=O)[C@H](CC(C)C)N(C)C(=O)[C@H](C(C)C)NC(=O)[C@H](CC(C)C)N(C)C(=O)[C@H]([C@@H](C)O)NC(=O)[C@H](Cc2ccccc2)N(C)C(=O)CN(C)C(=O)C[C@@H](C)N(C)C(=O)[C@H](C(C)C)NC(=O)[C@H](COC(C)(C)C)NC(=O)[C@H](C)N(C)C1=O [pd146] (cyclo([Abu][NMeA]S(tBu)V[NMedβ3hAla][Sar][NMeF]T[NMeL]V[NMeL]P[NMeF])) ; field requested: Papp A→B
0.2

FYI, the data here is from patent EP4768499A1.
